Biological target: BRD4 (Homo sapiens)
Construct: fused on or other part: GST tag, fused on for capture by the AlphaLISA Glutathione Acceptor Beads
Test: BRD4-H4 tetraacetylated Peptide Inhibition AlphaScreen
Details: GST-BRD4-BD1 (aa 44-168) or GST-BRD4-BD2 (aa 333-460) with biotinylated Acetyl-Histone H4 peptide; table does not state which bromodomain
Outcome measure: IC50
Quick note: number first, unit second.

Known results for molecules:
[[record]]
molecule = "Cc1noc(C)c1-c1ccc2c(c1)C(O)(c1ccc3c(c1)OCO3)C(=O)N2 (stereo not drawn)"
endpoint_result = "541 nM"

[[record]]
molecule = "Cc1noc(C)c1-c1ccc2c(c1)C(O)(c1ccccc1CN1CCOCC1)C(=O)N2 (stereo not drawn)"
endpoint_result = "176 nM"


Observed IC50 on BRD4 (Homo sapiens) for COc1cc(F)cc(C2c3cc(-c4c(C)noc4C)ccc3C(=O)N2C)c1 (stereo not drawn) , please.
380 nM

Observed IC50 on BRD4 (Homo sapiens) for Cc1noc(C)c1-c1ccc2c(c1)C1(c3ccccc3)OCCCN1C2=O (stereo not drawn) , please.
36 nM

Observed IC50 on BRD4 (Homo sapiens) for Cc1noc(C)c1-c1ccc2c(c1)C(O)(c1cccnc1)C(=O)N2 (stereo not drawn) , please.
395 nM

Observed IC50 on BRD4 (Homo sapiens) for Cc1noc(C)c1-c1ccc2c(c1)C(c1ccccc1)N(CCN(C)C)C2=O (stereo not drawn) , please.
65 nM

Observed IC50 on BRD4 (Homo sapiens) for Cc1noc(C)c1-c1ccc2c(c1)C1(c3ccccc3)OCCN1C2=O (stereo not drawn) , please.
72 nM

Observed IC50 on BRD4 (Homo sapiens) for Cc1noc(C)c1-c1ccc2c(c1)C(C)(c1ccccc1)N(C)C2=O (stereo not drawn) , please.
38 nM

Observed IC50 on BRD4 (Homo sapiens) for Cc1noc(C)c1-c1ccc2c(c1)C(O)(C1CCOCC1)C(=O)N2 (stereo not drawn) , please.
1570 nM

Observed IC50 on BRD4 (Homo sapiens) for Cc1cc(-c2c(C)noc2C)cc2c1C(=O)N(C)C2c1ccccc1 (stereo not drawn) , please.
2490 nM

Observed IC50 on BRD4 (Homo sapiens) for COc1c(-c2c(C)noc2C)ccc2c1C(c1ccccc1)OC2=O (stereo not drawn) , please.
350 nM

Observed IC50 on BRD4 (Homo sapiens) for Cc1noc(C)c1-c1ccc2c(c1)C(O)(c1ccccc1)C(=O)N2 (stereo not drawn) , please.
259 nM

###

Molecular target: BRD4 (Homo sapiens)
Construct: fused on or other part: GST tag, fused on for capture by the AlphaLISA Glutathione Acceptor Beads
Assay: BRD4-H4 tetraacetylated Peptide Inhibition AlphaScreen
Details: GST-BRD4-BD1 (aa 44-168) or GST-BRD4-BD2 (aa 333-460) with biotinylated Acetyl-Histone H4 peptide; table does not state which bromodomain
Listing of entries alongside the reported log10 IC50.
Heads up, the numbers here are log10 of IC50 in nM units.

Known results for compounds:
[[record]]
compound = "Cc1noc(C)c1-c1ccc2c(c1)C(c1ccccc1)N(C(C)C)C2=O (centres unmarked)"
target_entity = "BRD4 (Homo sapiens)"
endpoint_result = 1.88

[[record]]
compound = "Cc1noc(C)c1-c1ccc2c(c1)[C@](O)(c1ccccc1)C(=O)N2"
target_entity = "BRD4 (Homo sapiens)"
endpoint_result = 1.68

[[record]]
compound = "Cc1cncc(C2(O)C(=O)Nc3ccc(-c4c(C)noc4C)cc32)c1 (centres unmarked)"
target_entity = "BRD4 (Homo sapiens)"
endpoint_result = 3.02

[[record]]
compound = "Cc1noc(C)c1-c1ccc2c(c1)C(C)(c1ccccc1)C(=O)N2c1cccnc1 (centres unmarked)"
target_entity = "BRD4 (Homo sapiens)"
endpoint_result = 2.38


Observed log10 IC50 on BRD4 (Homo sapiens) for Cc1noc(C)c1-c1ccc2c(c1)C(O)(c1ccccn1)C(=O)N2 (centres unmarked) , please.
2.52

###

Target: BRD4 (Homo sapiens, UniProt O60885)
Construct: fused on or other part: GST tag, fused on for capture by the AlphaLISA Glutathione Acceptor Beads
Experiment: BRD4-H4 tetraacetylated Peptide Inhibition AlphaScreen
Conditions: GST-BRD4-BD1 (aa 44-168) or GST-BRD4-BD2 (aa 333-460) with biotinylated Acetyl-Histone H4 peptide; table does not state which bromodomain
Listing of entries alongside the reported pIC50.
Please treat pIC50 as minus the base-10 logarithm of the molar concentration.

Known results for compounds:
[[record]]
compound = "Cc1noc(C)c1-c1ccc2c(c1)C(c1ccccc1)N(C)C2=O (stereo not drawn) [Example 8]"
endpoint_result = 7.26

[[record]]
compound = "Cc1noc(C)c1-c1ccc2c(c1)C(C1CCC3(CCC3)CC1)N(C)C2=O (stereo not drawn) [Example 7]"
endpoint_result = 5.96

[[record]]
compound = "Cc1noc(C)c1-c1ccc2c(c1)C(O)(c1cccs1)C(=O)N2 (stereo not drawn) [Example 26]"
endpoint_result = 6.49


Using the record for Cc1noc(C)c1-c1ccc2c(c1)[C@H](c1ccccc1)N(C)C2=O [Example 9] , report its pIC50.
7.85

Using the record for Cc1noc(C)c1-c1ccc2c(c1)C(c1ccccc1)N(CCCN(C)C)C2=O (stereo not drawn) [Example 3] , report its pIC50.
7.37

Using the record for Cc1noc(C)c1-c1ccc2c(c1)C(C1CCCCC1)N(C)C2=O (stereo not drawn) [Example 6] , report its pIC50.
7.37

Using the record for Cc1noc(C)c1-c1ccc2c(c1C)C(c1ccccc1)OC2=O (stereo not drawn) [Example 17] , report its pIC50.
5.97

Using the record for Cc1ccccc1C1(O)C(=O)Nc2ccc(-c3c(C)noc3C)cc21 (stereo not drawn) [Example 33] , report its pIC50.
5.97

###

Target: BRD4 (Homo sapiens, UniProt O60885)
Construct: fused on or other part: GST tag, fused on for capture by the AlphaLISA Glutathione Acceptor Beads
Test: BRD4-H4 tetraacetylated Peptide Inhibition AlphaScreen
Details: GST-BRD4-BD1 (aa 44-168) or GST-BRD4-BD2 (aa 333-460) with biotinylated Acetyl-Histone H4 peptide; table does not state which bromodomain
Listing of entries alongside the reported IC50.
Please give a number only; it is taken to be in nM.

Known results for molecules:
[[record]]
molecule = "Cc1noc(C)c1-c1ccc2c(c1)C(c1ccccc1)N(C1CCN(C)CC1)C2=O (stereo not shown) [Example 2]"
outcome_measure = "IC50"
endpoint_result = 57

[[record]]
molecule = "Cc1noc(C)c1-c1ccc2c(c1)C(C)(c1ccccc1)C(=O)N2 (stereo not shown) [Example 18]"
outcome_measure = "IC50"
endpoint_result = 54

[[record]]
molecule = "Cc1noc(C)c1-c1ccc2c(c1)C(O)(C1CCCCC1)C(=O)N2 (stereo not shown) [Example 30]"
outcome_measure = "IC50"
endpoint_result = 196

[[record]]
molecule = "Cc1noc(C)c1-c1ccc2c(c1)C(O)(C1CCCC1)C(=O)N2 (stereo not shown) [Example 27]"
outcome_measure = "IC50"
endpoint_result = 698

[[record]]
molecule = "Cc1noc(C)c1-c1ccc2c(c1)C(c1cc(F)cc(F)c1)N(C)C2=O (stereo not shown) [Example 5]"
outcome_measure = "IC50"
endpoint_result = 229


Using the record for Cc1noc(C)c1-c1ccc2c(c1)C(O)(c1ccc(Cl)cc1)C(=O)N2 (stereo not shown) [Example 25] , report its IC50.
295

Using the record for Cc1noc(C)c1-c1ccc2c(c1)[C@](O)(c1ccccc1CN1CCOCC1)C(=O)N2 [Example 24] , report its IC50.
41

Using the record for Cc1noc(C)c1-c1ccc2c(c1)C(C)(c1ccccc1)C(=O)N2C (stereo not shown) [Example 19] , report its IC50.
275

Using the record for Cc1noc(C)c1-c1ccc2c(c1)C(c1ccccc1)OC2=O (stereo not shown) [Example 13] , report its IC50.
193

Using the record for Cc1noc(C)c1-c1ccc2c(c1)C(O)(c1ccc(F)c(F)c1)C(=O)N2 (stereo not shown) [Example 28] , report its IC50.
203
